system: P. falciparum 3D7 parasites; test: P. falciparum growth inhibition assay, 2-cycle (120 h treatment), delayed-death screen and dose-response; type: cell-based, Plasmodium falciparum; conditions: Plasmodium falciparum, 3D7; library screen at 2 μg/mL, 120 h, % growth, replicate 2; read-out: Pf_120h_%Growth_Rep2
Counter-ions that a name gives are not always drawn.
# maps each entry to its activity at 2 µg/mL
Please give a number only; it is taken to be in %.

Consider the worked cases shown below.
Input: Fill in: activity at 2 µg/mL of `CC(C)C[C@H](NC(=O)[C@@H](O)[C@H](N)Cc1ccccc1)C(=O)O` is ___
Output: 8.03

Input: Same lookup for Cc1c2c(c(O)c3c(O)cccc13)C(=O)[C@]1(O)C(=O)C(C(N)=O)=C(O)[C@@H](N(C)C)[C@@H]1C2 [Anhydrotetracycline hydrochloride] , please.
Output: 57

Input: Now give it for C[C@H]1c2cccc(O)c2C(=O)C2=C(O)[C@]3(O)C(=O)C(C(N)=O)=C(O)[C@@H](N(C)C)[C@@H]3[C@@H](O)[C@@H]21 [Doxycycline, reference compound] too.
Output: 6.5

Input: What about `[N-]=[N+]=NCC(=O)N[C@H](CO)[C@H](O)c1ccc([N+](=O)[O-])cc1` ?
Output: 95.3

Here's the next entry for you.
Input: Requested read-out: activity at 2 µg/mL. Entry: `C[C@@]1(CO)[C@H](O)CC[C@@]2(C)[C@H]1CC[C@H]1C[C@@H]3C[C@@]12CC[C@]3(O)CO`
Output: -6.36
